Target: isolated recombinant JAK1 kinase domain (Homo sapiens (Human), UniProt P23458)
Sequence (P23458 875-1153): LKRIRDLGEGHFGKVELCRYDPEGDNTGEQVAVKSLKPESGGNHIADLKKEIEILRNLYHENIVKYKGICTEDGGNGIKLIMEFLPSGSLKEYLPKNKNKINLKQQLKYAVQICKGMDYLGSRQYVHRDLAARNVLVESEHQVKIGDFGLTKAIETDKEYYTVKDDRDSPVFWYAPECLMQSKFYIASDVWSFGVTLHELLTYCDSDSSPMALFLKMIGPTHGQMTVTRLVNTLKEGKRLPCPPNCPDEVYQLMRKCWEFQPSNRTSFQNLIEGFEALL
Assay: JAK1 enzyme assay (Caliper LabChip, peptide phosphorylation)
Assay type: biochemical
Settings: isolated recombinant JAK1 kinase domain, 25 μM ATP
experimental.readout: Ki (nM)

>>> numeric_value("O=C(Nc1cn(CC(=O)N2CCC(OCCO)CC2)nc1-c1cc(Cl)ccc1OC(F)F)c1cnn2cccnc12")
0.31
>>> numeric_value("O=C(Nc1cn(CC(=O)N2CC3(CCNC3)C2)nc1-c1cc(Cl)ccc1OC(F)F)c1cnn2cccnc12")
1.22
>>> numeric_value("O=C(Nc1cn(CC(=O)N2CCC(N3CCNCC3=O)CC2)nc1-c1cc(Cl)ccc1OC(F)F)c1cnn2cccnc12")
0.35
>>> numeric_value("CN1CC[C@H]2CN(C(=O)Cn3cc(NC(=O)c4cnn5cccnc45)c(-c4cc(Cl)ccc4OC(F)F)n3)C[C@H]2C1")
0.61
>>> numeric_value("Nc1nn2cccnc2c1C(=O)Nc1cn(C2CCN(CCCO)CC2)nc1-c1cc(Cl)ccc1OC(F)F")
0.68
>>> numeric_value("CN1CCC2CN(C(=O)Cn3cc(NC(=O)c4c(N)nn5cccnc45)c(-c4cc(Cl)ccc4OC(F)F)n3)CCC21 (centres unmarked)")
0.74
>>> numeric_value("COC(=O)CCN1CCN(C(=O)Cn2cc(NC(=O)c3cnn4cccnc34)c(-c3cc(Cl)ccc3OC(F)F)n2)CC1")
0.39
>>> numeric_value("CN(C1CCN(C(=O)Cn2cc(NC(=O)c3cnn4cccnc34)c(-c3cc(Cl)ccc3OC(F)F)n2)CC1)C1COC1")
0.3
>>> numeric_value("O=C(Nc1cn(CC(=O)N2CCN(C3CCOCC3)CC2)nc1-c1cc(Cl)ccc1OC(F)F)c1cnn2cccnc12")
0.48
>>> numeric_value("N#CCCCN1CCN(C(=O)Cn2cc(NC(=O)c3cnn4cccnc34)c(-c3cc(Cl)ccc3OC(F)F)n2)CC1")
0.4
>>> numeric_value("C[C@@H]1CN(C(=O)Cn2cc(NC(=O)c3c(N)nn4cccnc34)c(-c3cc(Cl)ccc3OC(F)F)n2)C[C@H](C)N1")
0.83
>>> numeric_value("CN(C)CC#Cc1nc(-c2cc(Cl)ccc2OC(F)F)c(NC(=O)c2cnn3cccnc23)s1")
0.78
>>> numeric_value("CN(Cc1ccc(Cl)c(Cl)c1)C1CCN(C(=O)Cn2cc(NC(=O)c3cnn4cccnc34)c(-c3cc(Cl)ccc3OC(F)F)n2)CC1")
0.24
>>> numeric_value("CN(C)C1CN(C(=O)Cn2cc(NC(=O)c3cnn4cccnc34)c(-c3cc(Cl)ccc3OC(F)F)n2)C1")
0.66

----------
Target: isolated recombinant JAK2 kinase domain (Homo sapiens (Human))
Sequence (O60674 849-1124): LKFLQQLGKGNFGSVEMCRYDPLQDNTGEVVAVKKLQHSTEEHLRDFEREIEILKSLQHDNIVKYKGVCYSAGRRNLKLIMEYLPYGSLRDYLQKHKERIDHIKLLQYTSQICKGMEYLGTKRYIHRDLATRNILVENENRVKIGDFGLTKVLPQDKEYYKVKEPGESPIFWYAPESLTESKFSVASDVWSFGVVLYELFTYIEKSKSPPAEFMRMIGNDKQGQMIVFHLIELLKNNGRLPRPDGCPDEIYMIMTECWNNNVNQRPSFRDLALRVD
Experiment: JAK2 enzyme assay (Caliper LabChip, peptide phosphorylation)
Conditions: 25 μM ATP
# label = 1.0 if Ki < 1 nM else 0.0

>>> class_name("Nc1nn2cccnc2c1C(=O)Nc1cn(C2CCN(CCCN3CCCC3=O)CC2)nc1-c1cc(Cl)ccc1OC(F)F")
1.0
>>> class_name("O=C(CNCCn1cc(NC(=O)c2cnn3cccnc23)c(-c2cc(Cl)ccc2OC(F)F)n1)OC1CCCC1")
1.0
>>> class_name("CC(C)N1C[C@H]2CN(C(=O)Cn3cc(NC(=O)c4cnn5cccnc45)c(-c4cc(Cl)ccc4OC(F)F)n3)C[C@H]2C1")
0.0
>>> class_name("CN(C)CCOC(=O)C1CCN(C(=O)Cn2cc(NC(=O)c3cnn4cccnc34)c(-c3cc(Cl)ccc3OC(F)F)n2)CC1")
0.0
>>> class_name("COC(=O)CNCCn1cc(NC(=O)c2cnn3cccnc23)c(-c2cc(Cl)ccc2OC(F)F)n1")
1.0
>>> class_name("O=C(Nc1sc(N2CCC(N3CC(F)(F)C3)CC2)nc1-c1cc(Cl)ccc1OC(F)F)c1cnn2cccnc12")
0.0
>>> class_name("CN(CCCc1ccccc1)C1CCN(C(=O)Cn2cc(NC(=O)c3cnn4cccnc34)c(-c3cc(Cl)ccc3OC(F)F)n2)CC1")
0.0
>>> class_name("Nc1nn2cccnc2c1C(=O)Nc1cn(C2CCNCC2)nc1-c1cc(Cl)ccc1OC(F)F")
1.0
>>> class_name("Cc1ccc(OCCN(C)C2CCN(C(=O)Cn3cc(NC(=O)c4cnn5cccnc45)c(-c4cc(Cl)ccc4OC(F)F)n3)CC2)cc1")
0.0
>>> class_name("CN1CC[C@H]2CN(C(=O)Cn3cc(NC(=O)c4cnn5cccnc45)c(-c4cc(Cl)ccc4OC(F)F)n3)CC[C@H]21")
1.0
>>> class_name("CN(CCOc1ccccc1Br)C1CCN(C(=O)Cn2cc(NC(=O)c3cnn4cccnc34)c(-c3cc(Cl)ccc3OC(F)F)n2)CC1")
0.0
>>> class_name("O=C(Nc1cn(CC(=O)N2CCC(C(=O)O)CC2)nc1-c1cc(Cl)ccc1OC(F)F)c1cnn2cccnc12")
1.0
>>> class_name("Nc1nn2cccnc2c1C(=O)Nc1cn(C2CCCNCC2)nc1-c1cc(Cl)ccc1OC(F)F (stereo not drawn)")
1.0
>>> class_name("O=C(Nc1cn(CC(=O)N2C[C@H]3CNC[C@H]3C2)nc1-c1cc(Cl)ccc1OC(F)F)c1cnn2cccnc12")
1.0
>>> class_name("O=C(Nc1cn(CCNCc2ccncc2)nc1-c1cc(Cl)ccc1OC(F)F)c1cnn2cccnc12")
1.0
>>> class_name("O=C(Nc1cn(CC(=O)N2CCC(N3CC4CC(C3)O4)CC2)nc1-c1cc(Cl)ccc1OC(F)F)c1cnn2cccnc12")
1.0
>>> class_name("CC1CN(C(=O)Cn2cc(NC(=O)c3cnn4cccnc34)c(-c3cc(Cl)ccc3OC(F)F)n2)CCN1C (stereo not drawn)")
0.0
>>> class_name("C[C@@H](Cn1cc(NC(=O)c2cnn3cccnc23)c(-c2cc(Cl)ccc2OC(F)F)n1)N(C)C")
0.0
>>> class_name("Nc1nn2cccnc2c1C(=O)Nc1cn(C2CCN(CCCC(=O)NCc3ccccc3)CC2)nc1-c1cc(Cl)ccc1OC(F)F")
1.0
>>> class_name("CCOC(=O)CNCCn1cc(NC(=O)c2cnn3cccnc23)c(-c2cc(Cl)ccc2OC(F)F)n1")
1.0
>>> class_name("CN(CCOc1ccc(Br)cc1)C1CCN(C(=O)Cn2cc(NC(=O)c3cnn4cccnc34)c(-c3cc(Cl)ccc3OC(F)F)n2)CC1")
0.0
>>> class_name("O=C(Nc1cn(CC(=O)N2CCCN(CCO)CC2)nc1-c1cc(Cl)ccc1OC(F)F)c1cnn2cccnc12")
0.0
>>> class_name("O=C(Nc1cn(CC(=O)N2C[C@H]3CN(CC4CCC4)C[C@H]3C2)nc1-c1cc(Cl)ccc1OC(F)F)c1cnn2cccnc12")
1.0
>>> class_name("CCCN1CCN(C(=O)Cn2cc(NC(=O)c3cnn4cccnc34)c(-c3cc(Cl)ccc3OC(F)F)n2)CC1")
1.0
>>> class_name("Nc1nn2cccnc2c1C(=O)Nc1cn([C@H]2C[C@@H](N)C2)nc1-c1cc(Cl)ccc1OC(F)F")
1.0

----------
Catalogue of Ki readings, one per entry.
Target: isolated recombinant JAK2 kinase domain (Homo sapiens (Human))
Experiment: JAK2 enzyme assay (Caliper LabChip, peptide phosphorylation)
Conditions: 25 μM ATP
experimental.readout: Ki (nM)

>>> numeric_value("O=C(Nc1cn(CCNCc2cccc(O)c2)nc1-c1cc(Cl)ccc1OC(F)F)c1cnn2cccnc12")
0.2
>>> numeric_value("CN(C)C[C@H]1CCCN(C(=O)Cn2cc(NC(=O)c3cnn4cccnc34)c(-c3cc(Cl)ccc3OC(F)F)n2)C1")
4.66
>>> numeric_value("CN1CCN(C(=O)Cn2cc(NC(=O)c3cnn4cccnc34)c(-c3cc(Cl)ccc3OC(F)F)n2)C[C@H]1CO")
1.08
>>> numeric_value("O=C(Nc1cn(CC(=O)N2CCC(N3CCSCC3)CC2)nc1-c1cc(Cl)ccc1OC(F)F)c1cnn2cccnc12")
0.67

----------
Test system: JAK1-dependent STAT6 phosphorylation downstream of IL-13 stimulation in BEAS-2B human bronchial epithelial cells
Assay: JAK1 pathway assay in BEAS-2B cells (IL-13-pSTAT6, MSD)
Assay type: cell-based
Settings: read-out: IL13-pSTAT6 EC50 (uM)_BEAS-2B
experimental.readout: log10 EC50 (log10 of the value in µM)

>>> numeric_value("O=C(Nc1cn(CC(=O)N2C[C@@H]3CCN[C@@H]3C2)nc1-c1cc(Cl)ccc1OC(F)F)c1cnn2cccnc12")
-1.27
>>> numeric_value("CCN1CCN(C(=O)Cn2cc(NC(=O)c3cnn4cccnc34)c(-c3cc(Cl)ccc3OC(F)F)n2)CC1")
-1.74
>>> numeric_value("CSCCNCCn1cc(NC(=O)c2cnn3cccnc23)c(-c2cc(Cl)ccc2OC(F)F)n1")
-1.14
>>> numeric_value("CN(C1CCN(C(=O)Cn2cc(NC(=O)c3cnn4cccnc34)c(-c3cc(Cl)ccc3OC(F)F)n2)CC1)[C@H]1CCOC1")
-1.71
>>> numeric_value("CN[C@H]1C[C@@H](n2cc(NC(=O)c3c(N)nn4cccnc34)c(-c3cc(Cl)ccc3OC(F)F)n2)C1")
-1.67
>>> numeric_value("CC(F)(F)CNC1CCN(C(=O)Cn2cc(NC(=O)c3cnn4cccnc34)c(-c3cc(Cl)ccc3OC(F)F)n2)CC1")
-2.15
>>> numeric_value("O=C(Nc1cn(CCN[C@@H]2CCOC2)nc1-c1cc(Cl)ccc1OC(F)F)c1cnn2cccnc12")
-1.73

Hello, the source for this data is patent US9346815B2, in case you need it.
